Tested on: human telomerase
Assay: TRAPeze telomerase assay, HME50-5 cell lysate preincubated with PNA (PNA scanning)
Type: biochemical
Conditions: 25° C., 30 min preincubation; read-out: IC50 for inhibition of telomerase (text)
Value type: IC50

State the recorded IC50 for this entry: PNA 4: PNA, sequence GGGTTAGACAA
0.01 µM

* * *

System: human telomerase
Experiment: TRAP assay of telomerase activity in HME50-5 cell extracts preincubated with PNA or PS oligomer
Format: biochemical
Settings: HME50-5 cell extract, 25° C., 30 min preincubation; listed as PNA XI; read-out: IC50 (nM) Cell Extract 25° C.
Value type: IC50

State the recorded IC50 for this entry: PNA (XI): complementary PNA, sequence GGGTTAGACAA (all peptide nucleic acid (PNA))
~10 nM

Cited source for all entries: patent US6294650A
